targetDesc: NDM-1 (Klebsiella pneumoniae)
Sequence (C7C422 whole entry, looked up, species assumed): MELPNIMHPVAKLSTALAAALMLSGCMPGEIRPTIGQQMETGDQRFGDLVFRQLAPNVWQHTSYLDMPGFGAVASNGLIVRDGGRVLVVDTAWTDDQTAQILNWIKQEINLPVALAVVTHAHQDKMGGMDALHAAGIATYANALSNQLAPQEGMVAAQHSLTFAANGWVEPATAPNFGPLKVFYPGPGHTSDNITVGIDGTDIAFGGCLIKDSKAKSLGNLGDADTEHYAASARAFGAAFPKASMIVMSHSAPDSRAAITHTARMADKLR
testSummary: biochemical
Type: biochemical
assaySetup: CCF2-FA substrate, 2 hours at 25° C; read-out: NDM-1 IC50
endpoint: log10 of IC50 (log10 of the value in nM)
Answers are given as log10 of IC50 in nM.

Lookup: Tell me the measured log10 of IC50 of Nc1nc2cccc(-c3ccc(S(=O)(=O)C4CNC4)c(S(N)(=O)=O)c3-c3nn[nH]n3)c2o1 , please.
Found: -1.31

Lookup: Tell me the measured log10 of IC50 of Nc1nc2c(-c3ccc(S(=O)(=O)C4CN(CCO)C4)c(S(N)(=O)=O)c3-c3nn[nH]n3)cccc2[nH]1 , please.
Found: -0.34

Lookup: Tell me the measured log10 of IC50 of NCCS(=O)(=O)c1ccc(-c2cccc3[nH]c([C@H](N)CNC(=O)C(F)(F)F)nc23)c(-c2nn[nH]n2)c1S(N)(=O)=O , please.
Found: 0.11

Lookup: Tell me the measured log10 of IC50 of NS(=O)(=O)c1c(S(=O)(=O)C2CNC2)ccc(-c2ccnc3[nH]nnc23)c1-c1nn[nH]n1 , please.
Found: 0.75

Lookup: Tell me the measured log10 of IC50 of NC[C@H](O)CS(=O)(=O)c1ccc(-c2cccc3[nH]c(N)nc23)c(-c2nn[nH]n2)c1S(N)(=O)=O , please.
Found: -0.80

Lookup: Tell me the measured log10 of IC50 of NCc1nc2c(-c3ccc(S(=O)(=O)C[C@H](O)CN)c(S(N)(=O)=O)c3-c3nn[nH]n3)cccc2[nH]1 , please.
Found: -0.44

* * *

targetDesc: IMP-1 (Serratia marcescens)
Sequence (P52699 whole entry, looked up, species assumed): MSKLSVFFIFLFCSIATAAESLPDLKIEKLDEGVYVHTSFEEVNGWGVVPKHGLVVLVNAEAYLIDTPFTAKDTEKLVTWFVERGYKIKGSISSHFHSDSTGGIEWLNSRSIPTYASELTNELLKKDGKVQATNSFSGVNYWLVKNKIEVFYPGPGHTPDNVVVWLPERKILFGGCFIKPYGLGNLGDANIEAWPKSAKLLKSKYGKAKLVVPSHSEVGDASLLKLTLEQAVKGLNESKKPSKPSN
testSummary: biochemical
Type: biochemical
assaySetup: CCF2-FA substrate, 2 hours at 25° C; read-out: IMP-1 IC50
endpoint: IC50 (nM)
The response must be a number in nM with no trailing unit.

Lookup: Tell me the measured IC50 of NCCS(=O)(=O)c1ccc(-c2ccc3[nH]nc(C(F)(F)F)c3c2)c(-c2nnn[nH]2)c1S(N)(=O)=O.O=C(O)C(F)(F)F [Example 163, 2,2,2-trifluoroacetate] , please.
Found: 1.22

Lookup: Tell me the measured IC50 of NS(=O)(=O)c1c(S(=O)(=O)C2CNC2)ccc(-c2cccn3ccnc23)c1-c1nnn[nH]1 , please.
Found: 0.597

Lookup: Tell me the measured IC50 of CCn1c(N)nc2c(-c3ccc(S(=O)(=O)C4CNC4)c(S(N)(=O)=O)c3-c3nn[nH]n3)cccc21 , please.
Found: 0.496

Lookup: Tell me the measured IC50 of Nc1cn2cccc(-c3ccc(S(=O)(=O)C4CNC4)c(S(N)(=O)=O)c3-c3nnn[nH]3)c2n1 , please.
Found: 2.5

Lookup: Tell me the measured IC50 of NCCS(=O)(=O)c1ccc(-c2ccc3c(c2)C(=O)NC3)c(-c2nnn[nH]2)c1S(N)(=O)=O.O=C(O)C(F)(F)F [Example 140, 2,2,2-trifluoroacetate] , please.
Found: 0.488

Lookup: Tell me the measured IC50 of NS(=O)(=O)c1c(S(=O)(=O)C2CNC2)ccc(-c2cccnc2N2CCOCC2)c1-c1nn[nH]n1 , please.
Found: 14.9

* * *

targetDesc: VIM-1 (Pseudomonas aeruginosa (strain ATCC 15692 / DSM 22644 / CIP 104116 / JCM 14847 / LMG 12228 / 1C / PRS 101 / PAO1))
testSummary: biochemical
assaySetup: CCF2-FA substrate, 2 hours at 25° C
endpoint: pIC50
# pIC50: negative log10 of molar concentration; output just the value

Lookup: Tell me the measured pIC50 of Nc1nc2ccc(-c3ccc(S(=O)(=O)C4CCNCC4)c(S(N)(=O)=O)c3-c3nn[nH]n3)cc2[nH]1 , please.
Found: 9.77

Lookup: Tell me the measured pIC50 of Cc1n[nH]c2cc(F)c(-c3ccc(S(=O)(=O)CCN)c(S(N)(=O)=O)c3-c3nnn[nH]3)cc12.O=C(O)C(F)(F)F [Example 162, 2,2,2-trifluoroacetate] , please.
Found: 9.49

Lookup: Tell me the measured pIC50 of NCCS(=O)(=O)c1ccc(-c2ccc3c(c2)CC(=O)N3)c(-c2nnn[nH]2)c1S(N)(=O)=O.O=C(O)C(F)(F)F [Example 157, 2,2,2-trifluoroacetate] , please.
Found: 9.53

Lookup: Tell me the measured pIC50 of C[C@H](N)CS(=O)(=O)c1ccc(-c2cccc3[nH]cnc23)c(-c2nn[nH]n2)c1S(N)(=O)=O , please.
Found: 9.78

Lookup: Tell me the measured pIC50 of Nc1cc(-c2cc(-c3ccc(S(=O)(=O)C4CNC4)c(S(N)(=O)=O)c3-c3nnn[nH]3)ccn2)ccn1 , please.
Found: 9.50

Lookup: Tell me the measured pIC50 of Cn1nnc2ccc(-c3ccc(S(=O)(=O)C4CNC4)c(S(N)(=O)=O)c3-c3nnn[nH]3)cc21.O=C(O)C(F)(F)F [Example 119, 2,2,2-trifluoroacetate] , please.
Found: 9.30

Lookup: Tell me the measured pIC50 of NCCc1nc2c(-c3ccc(S(=O)(=O)CCN)c(S(N)(=O)=O)c3-c3nn[nH]n3)cccc2[nH]1 , please.
Found: 9.43

Lookup: Tell me the measured pIC50 of NS(=O)(=O)c1c(SC2CNC2)ccc(-c2cnc3ccccn23)c1-c1nn[nH]n1 , please.
Found: 7.59

Lookup: Tell me the measured pIC50 of NC(=O)c1nc2c(-c3ccc(S(=O)(=O)C4CNC4)c(S(N)(=O)=O)c3-c3nn[nH]n3)cccc2[nH]1 , please.
Found: 9.66

Lookup: Tell me the measured pIC50 of NC(=O)N1CC(S(=O)(=O)c2ccc(-c3ccc(NS(=O)(=O)C4CC4)cc3)c(-c3nn[nH]n3)c2S(N)(=O)=O)C1 , please.
Found: 9.86

Lookup: Tell me the measured pIC50 of NCCS(=O)(=O)c1ccc(-c2cccc3[nH]c(C(F)(F)CN)nc23)c(-c2nn[nH]n2)c1S(N)(=O)=O , please.
Found: 10.51

Lookup: Tell me the measured pIC50 of NCCS(=O)(=O)c1ccc(-c2cccc(NC(=O)CN)c2)c(-c2nn[nH]n2)c1S(N)(=O)=O , please.
Found: 9.51

Lookup: Tell me the measured pIC50 of NCCS(=O)(=O)c1ccc(-c2cccc3oc(N)nc23)c(-c2nn[nH]n2)c1S(N)(=O)=O , please.
Found: 9.62

Lookup: Tell me the measured pIC50 of Nc1nc2c(-c3ccc(S(=O)(=O)c4cccc(C(F)(F)F)c4)c(S(N)(=O)=O)c3-c3nn[nH]n3)cccc2s1 , please.
Found: 9.17

Lookup: Tell me the measured pIC50 of NCCS(=O)(=O)c1ccc(-c2ccc3c(=O)nc[nH]c3c2)c(-c2nnn[nH]2)c1S(N)(=O)=O.O=C(O)C(F)(F)F [Example 165, 2,2,2-trifluoroacetate] , please.
Found: 9.24

Lookup: Tell me the measured pIC50 of CS(=O)(=O)c1ccc(-c2ccc(NS(=O)(=O)C3CC3)cc2)c(-c2nn[nH]n2)c1S(N)(=O)=O , please.
Found: 10.06

Lookup: Tell me the measured pIC50 of Cn1c(N)nc2c(-c3ccc(S(C)(=O)=O)c(S(N)(=O)=O)c3-c3nn[nH]n3)cccc21 , please.
Found: 9.71

Lookup: Tell me the measured pIC50 of NCCS(=O)(=O)c1ccc(-c2c[nH]c3nccnc23)c(-c2nnn[nH]2)c1S(N)(=O)=O.O=C(O)C(F)(F)F [Example 136, 2,2,2-trifluoroacetate] , please.
Found: 8.93

Lookup: Tell me the measured pIC50 of NCCCS(=O)(=O)c1ccc(-c2cccc3[nH]cnc23)c(-c2nn[nH]n2)c1S(N)(=O)=O , please.
Found: 9.79

Lookup: Tell me the measured pIC50 of Cc1ccc(-c2ccc(S(=O)(=O)[C@H]3CCNC3)c(S(N)(=O)=O)c2-c2nn[nH]n2)c2nc(N)sc12 , please.
Found: 9.95

Lookup: Tell me the measured pIC50 of NCCS(=O)(=O)c1ccc(-c2cccc(C(=O)N[C@H]3CCNC3)c2N)c(-c2nn[nH]n2)c1S(N)(=O)=O , please.
Found: 9.27

Lookup: Tell me the measured pIC50 of Nc1nc2c(-c3ccc([S+]([O-])C4CNC4)c(S(N)(=O)=O)c3-c3nn[nH]n3)cccc2[nH]1 (centres unmarked) , please.
Found: 8.18

Lookup: Tell me the measured pIC50 of Nc1nc2c(-c3ccc(S(=O)(=O)C4CNC4)c(S(N)(=O)=O)c3-c3nn[nH]n3)cccc2n1CCO , please.
Found: 9.61

Lookup: Tell me the measured pIC50 of Nc1ccc2cccc(-c3ccc(S(=O)(=O)C4CNC4)c(S(N)(=O)=O)c3-c3nn[nH]n3)c2n1 , please.
Found: 9.55

Lookup: Tell me the measured pIC50 of NCCS(=O)(=O)c1ccc(-c2cccc(-n3ccnc3)c2)c(-c2nnn[nH]2)c1S(N)(=O)=O , please.
Found: 9.36

Lookup: Tell me the measured pIC50 of NS(=O)(=O)c1c(S(=O)(=O)C2CNC2)ccc(-c2ccc3cn[nH]c3c2)c1-c1nnn[nH]1.O=C(O)C(F)(F)F [Example 127, 2,2,2-trifluoroacetate] , please.
Found: 9.37
